Cited source: ChEMBL document CHEMBL1141511

Target: Peroxisome proliferator-activated receptor alpha (Homo sapiens)
Sequence (Q07869 whole entry): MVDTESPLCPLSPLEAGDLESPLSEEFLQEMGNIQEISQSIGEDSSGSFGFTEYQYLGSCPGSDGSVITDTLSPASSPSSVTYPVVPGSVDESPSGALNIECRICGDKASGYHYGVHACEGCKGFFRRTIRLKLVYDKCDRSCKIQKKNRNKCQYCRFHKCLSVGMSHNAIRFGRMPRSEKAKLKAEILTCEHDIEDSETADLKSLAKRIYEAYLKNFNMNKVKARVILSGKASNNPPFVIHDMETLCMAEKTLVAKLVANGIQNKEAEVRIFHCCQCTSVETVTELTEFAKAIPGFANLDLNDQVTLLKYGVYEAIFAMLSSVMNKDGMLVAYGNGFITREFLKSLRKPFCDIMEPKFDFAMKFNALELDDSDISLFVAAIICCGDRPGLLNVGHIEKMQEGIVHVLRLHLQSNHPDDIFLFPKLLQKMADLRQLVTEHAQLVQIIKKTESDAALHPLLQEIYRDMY
Test: Agonist activity at human PPARalpha by GAL4 transactivation assay
assay_readout: EC50 (nM)

[A] CCOC(=O)C(Cc1ccc(OCCN2CCC(C)(C)c3cc(/C(=N\O)c4ccccc4)ccc32)cc1)OCC (configuration not stated)
[B] CCO[C@@H](Cc1ccc(OCCc2ccc(OS(C)(=O)=O)cc2)cc1)C(=O)O [TESAGLITAZAR]
Q. Consider A and B . Which of these has its EC50 at a higher number? Lab log: write the label of the selected item as the result.
A. B
